# assayed target: UniProt P17861
# experiment: Transactivation of XBP1 (unknown origin) transfected in rat IEC-6 cells at 10 uM after 48 hrs by dual luciferase reporter gene assay
# Format: cell-based
Active and inactive are the calls of the source. The calls are words filed in the database; no cut-off is given here.
Pick from T for active, F for inactive when you respond.

FC(F)(F)c1cccc(CC2=C3c4cc5c(cc4CCN3Cc3c2ccc2c3OCO2)OCO5)c1 | T

Qu. Tell me the assay call for `Fc1ccc(Cc2c3[n+](cc4c5c(ccc24)OCO5)CCc2cc4c(cc2-3)OCO4)cc1` please.
Ans. T

Qu. Which result was noted for this compound in the test: `N#Cc1ccc(Cc2c3[n+](cc4c5c(ccc24)OCO5)CCc2cc4c(cc2-3)OCO4)cc1`
Ans. T

Qu. Hi, sorry to bother you, what did the test record for `Fc1ccc(CC2=C3c4cc5c(cc4CCN3Cc3c2ccc2c3OCO2)OCO5)cc1` ?
Ans. T

Qu. # outcome recorded in this test, key = `C=C(C(=O)CCC)c1c2c3c(ccc2c(C)c2[n+]1CCc1cc4c(cc1-2)OCO4)OCO3`
Ans. F

Qu. Can you look up the reported call for `CC1=C2c3cc4c(cc3CCN2Cc2c1ccc1c2OCO1)OCO4` for me?
Ans. T

Qu. Given `O=c1c2c3c(ccc2cc2n1CCc1cc4c(cc1-2)OCO4)OCO3` , state the outcome it received in this test.
Ans. T

Qu. GET /call?item= `Fc1cccc(Cc2c3[n+](cc4c5c(ccc24)OCO5)CCc2cc4c(cc2-3)OCO4)c1` returns the recorded outcome of this test.
Ans. T

Qu. Status in this test for `Fc1cccc(CC2=C3c4cc5c(cc4CCN3Cc3c2ccc2c3OCO2)OCO5)c1` ?
Ans. T

Qu. Can you look up the reported call for `C=C(C(=O)c1ccc(OC)cc1)c1c2c3c(ccc2c(C)c2[n+]1CCc1cc4c(cc1-2)OCO4)OCO3` for me?
Ans. F

----------
# assayed target: X-box-binding protein 1 (Homo sapiens) (UniProt P17861)
# Sequence (whole entry): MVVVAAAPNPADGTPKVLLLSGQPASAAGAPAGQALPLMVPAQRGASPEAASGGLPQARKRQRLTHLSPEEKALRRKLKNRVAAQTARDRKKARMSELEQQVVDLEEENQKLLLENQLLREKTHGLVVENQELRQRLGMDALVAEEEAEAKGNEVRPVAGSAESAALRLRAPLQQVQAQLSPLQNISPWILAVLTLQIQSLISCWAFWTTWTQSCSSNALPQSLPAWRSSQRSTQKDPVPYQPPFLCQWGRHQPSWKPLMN
# experiment: Transactivation of XBP1 (unknown origin) transfected in rat IEC-6 cells at 10 uM after 48 hrs by dual luciferase reporter gene assay
# Assay type: cell-based
Active and inactive are the calls of the source. The rule behind the calls is not given here.
A correct response names exactly one class from 1 = active, 0 = inactive

Fc1ccc(CC2=C3c4cc5c(cc4CCN3Cc3c2ccc2c3OCO2)OCO5)c(F)c1 | 1

Qu. What outcome does the record of this test show for `Cc1ccc(CC2=C3c4cc5c(cc4CCN3Cc3c2ccc2c3OCO2)OCO5)cc1` ?
Ans. 1

Qu. Would you mind telling me which call this test gave `C1=C2c3cc4c(cc3CCN2Cc2c1ccc1c2OCO1)OCO4` ?
Ans. 1

Qu. For `C=C(C(=O)c1ccc(CC(C)C)cc1)c1c2c3c(ccc2c(C)c2[n+]1CCc1cc4c(cc1-2)OCO4)OCO3` , what call appears in the results of this test?
Ans. 0

Qu. # fetch the recorded call for `COc1ccc(Cc2c3[n+](cc4c5c(ccc24)OCO5)CCc2cc4c(cc2-3)OCO4)cc1` here
Ans. 1

Qu. // return assay outcome for `Fc1ccc(Cc2c3[n+](cc4c5c(ccc24)OCO5)CCc2cc4c(cc2-3)OCO4)c(F)c1`
Ans. 1

Where these numbers come from: ChEMBL document CHEMBL3611992
